Catalogue of GI50 readings, one per entry.
- System: HCT-15
- assay-comment: NCI tumour cell line growth inhibition, 48 h

>  <molecule>
COc1cc2c(oc(=O)c3c4occc4cc(OC)c23)c2cccc(OCc3ccccc3)c12

>  <GI50>
> 100 µM

$$$$

Form field: GI50 recorded for Nc1nc2c(ncn2C2OC(CO)C(O)C2N)c(=O)[nH]1 (stereo not drawn) with HCT-15 (enter value)
> 100 µM

Another molecule: COCCOC1=CC(=O)c2c(O)ccc(O)c2C1=O
1.02 µM

Another molecule: O=C1CCC(=O)N1Sc1ccccc1
> 100 µM

Another molecule: CC(C)c1ccc(/C=C2\N=C(c3ccc([N+](=O)[O-])cc3)OC2=O)cc1
> 100 µM

Another molecule: COc1ccc(NC(=S)N/N=C/c2c(C)n(C)n(-c3ccccc3)c2=O)cc1
> 100 µM

Another molecule: Cc1ccsc1C(=S)Nc1ccc(Cl)c(/C=N/OC(C)C)c1
15.5 µM

Another molecule: CC(=O)NC1C(OCc2ccccc2)OC(CO)C(O)C1OCC(=O)N[C@@H](C)C(=O)N[C@H](CCC(=O)NCCCNc1c2ccccc2nc2cccc([N+](=O)[O-])c12)C(N)=O (stereo partly drawn)
0.0312 µM

// provenance: ChEMBL document CHEMBL1201862
